# Test system: Staphylococcus aureus ATCC 25923
# Experimental details: ≥ marks a high value that may be exact or a test limit, other limits are often not marked, values filed in µg/mL are converted to µM
Measured endpoint: MIC (µM)
A number alone suffices; assume µM.

Recorded result, NCCCC[C@H](NC(=O)[C@H](Cc1c[nH]c2ccccc12)NC(=O)[C@H](Cc1c[nH]c2ccccc12)NC(=O)[C@H](CCCCN)NC(=O)[C@H](Cc1c[nH]c2ccccc12)NC(=O)[C@H](Cc1c[nH]c2ccccc12)NC(=O)[C@H](CCCN=C(N)N)NC(=O)[C@H](Cc1c[nH]c2ccccc12)NC(=O)[C@H](Cc1c[nH]c2ccccc12)NC(=O)[C@H](CCCN=C(N)N)NC(=O)[C@H](CCCCN)NC(=O)[C@@H](N)CCCN=C(N)N)C(=O)N[C@@H](CCCN=C(N)N)C(N)=O , MIC: 7.46

###

Measured endpoint: MIC (µM)
A number alone suffices; assume µM.

Reported MIC (Bacillus subtilis 168) for entry CC[C@H](C)[C@H](NC(=O)[C@H](Cc1cnc[nH]1)NC(=O)[C@H](CCCCN)NC(=O)[C@H](CC(C)C)NC(=O)[C@H](CC(C)C)NC(=O)[C@H](Cc1cnc[nH]1)NC(=O)[C@H](CCSC)NC(=O)[C@H](Cc1c[nH]c2ccccc12)NC(=O)[C@H](CCCCN)NC(=O)CN)C(=O)N[C@@H](CC(C)C)C(=O)N[C@@H](CCCCN)C(N)=O [GKWMHLLKHILK] is 1.1

Reported MIC (Bacillus subtilis 168) for entry CC[C@H](C)[C@H](NC(=O)[C@H](C)NC(=O)CNC(=O)[C@H](Cc1c[nH]c2ccccc12)NC(=O)[C@H](CC(N)=O)NC(=O)[C@@H](N)CC(C)C)C(=O)N[C@@H](CC(C)C)C(=O)N[C@@H](CCCCN)C(=O)N[C@@H](Cc1cnc[nH]1)C(=O)N[C@H](C(=O)N[C@H](C(=O)N[C@@H](CCCCN)C(N)=O)[C@@H](C)CC)[C@@H](C)CC [LNWGAILKHIIK] is 1.3

###

# System: Micrococcus luteus CCM 144
Measured endpoint: MIC
Answer with the value and then the unit.

Recorded result, CC[C@H](C)[C@H](NC(=O)CN)C(=O)N[C@@H](CC(C)C)C(=O)N[C@@H](CO)C(=O)N[C@@H](CO)C(=O)N[C@@H](CC(C)C)C(=O)N[C@@H](CC(C)C)C(=O)N[C@@H](CCCCN)C(=O)N[C@@H](CCCCN)C(=O)N[C@@H](Cc1c[nH]c2ccccc12)C(=O)N[C@@H](CCCCN)C(=O)N[C@@H](CCCCN)C(=O)N[C@H](C(=O)N[C@H](C(=O)N[C@@H](C)C(=O)N[C@@H](CCCCN)C(N)=O)[C@@H](C)CC)[C@@H](C)CC , MIC: 3 µM

###

# System: Candida albicans F7-39/IDE99
Kindly state MIC for each of the entries shown.
A number alone suffices; assume µM.

Recorded result, CC[C@H](C)[C@H](NC(=O)[C@H](C)NC(=O)[C@H](CCCCN)NC(=O)[C@H](Cc1c[nH]c2ccccc12)NC(=O)[C@H](CC(N)=O)NC(=O)[C@@H](N)CCCCN)C(=O)N[C@@H](CC(C)C)C(=O)N[C@@H](CCCCN)C(=O)N[C@@H](Cc1cnc[nH]1)C(=O)N[C@H](C(=O)N[C@H](C(=O)N[C@@H](CCCCN)C(N)=O)[C@@H](C)CC)[C@@H](C)CC [KNWKAILKHIIK] , MIC: 8

Recorded result, CC[C@H](C)[C@H](NC(=O)CN)C(=O)N[C@@H](CC(C)C)C(=O)N[C@@H](CO)C(=O)N[C@@H](CO)C(=O)N[C@@H](CC(C)C)C(=O)N[C@@H](Cc1c[nH]c2ccccc12)C(=O)N[C@@H](CCCCN)C(=O)N[C@@H](CCCCN)C(=O)N[C@@H](CC(C)C)C(=O)N[C@@H](CCCCN)C(=O)N[C@@H](CCCCN)C(=O)N[C@H](C(=O)N[C@H](C(=O)N[C@@H](C)C(=O)N[C@@H](CCCCN)C(N)=O)[C@@H](C)CC)[C@@H](C)CC [GILSSLWKKLKKIIAK] , MIC: 11

Recorded result, CC[C@H](C)[C@H](NC(=O)[C@H](CCCCN)NC(=O)[C@H](CCCCN)NC(=O)[C@H](Cc1c[nH]c2ccccc12)NC(=O)[C@H](CC(N)=O)NC(=O)[C@@H](N)C(C)C)C(=O)N[C@@H](CC(C)C)C(=O)NCC(=O)N[C@@H](CCCCN)C(=O)N[C@H](C(=O)N[C@H](C(=O)N[C@@H](CCCCN)C(=O)N[C@H](C(=O)N[C@@H](C)C(=O)N[C@@H](CCCCN)C(N)=O)C(C)C)[C@@H](C)CC)[C@@H](C)CC [VNWKKILGKIIKVAK] , MIC: 10

Recorded result, CC[C@H](C)[C@H](NC(=O)[C@H](C)NC(=O)CNC(=O)[C@H](Cc1c[nH]c2ccccc12)NC(=O)[C@H](CC(N)=O)NC(=O)[C@@H](N)CC(C)C)C(=O)N[C@@H](CC(C)C)C(=O)N[C@@H](CCCCN)C(=O)N[C@@H](Cc1cnc[nH]1)C(=O)N[C@H](C(=O)N[C@H](C(=O)N[C@@H](CCCCN)C(N)=O)[C@@H](C)CC)[C@@H](C)CC [LNWGAILKHIIK] , MIC: 7.3
